biological target: PPAR delta/gamma (Homo sapiens) (UniProt P37231+Q03181); experiment: Selectivity ratio of EC50 for human PPARdelta expressed in human HEK293 cells to EC50 for human PPARgamma expressed in human HEK293 cells; format: cell-based
Record form. Attribute: Ratio EC50. Fill in for each entry.

input: # get_value(readout='Ratio EC50', item= CCCOc1ccc(C[C@H](CC2CCCCC2)C(=O)O)cc1CNC(=O)c1ccc(C23CC4CC(CC(C4)C2)C3)cc1 )
output: 240

input: Try this compound next: CCCOc1ccc(C[C@@H](CCc2ccccc2)C(=O)O)cc1CNC(=O)c1ccc(C23CC4CC(CC(C4)C2)C3)cc1
output: 50

input: Try this compound next: CCCOc1ccc(C[C@H](CCc2ccccc2)C(=O)O)cc1CNC(=O)c1ccc(C23CC4CC(CC(C4)C2)C3)cc1
output: 50

input: Try this compound next: CCCOc1ccc(C[C@@H](CC2CCCCC2)C(=O)O)cc1CNC(=O)c1ccc(C23CC4CC(CC(C4)C2)C3)cc1
output: 240

---

Record form. Attribute: Activity. Fill in for each entry.
biological target: Peroxisome proliferator-activated receptor gamma (Homo sapiens); assay: Transactivation of human PPARgamma expressed in human HEK293 cells assessed as concentration required for maximum activity after 16 to 20 hrs by dual luciferase beta-galactosidase reporter gene assay; assay type: cell-based
Sequence (P37231 whole entry): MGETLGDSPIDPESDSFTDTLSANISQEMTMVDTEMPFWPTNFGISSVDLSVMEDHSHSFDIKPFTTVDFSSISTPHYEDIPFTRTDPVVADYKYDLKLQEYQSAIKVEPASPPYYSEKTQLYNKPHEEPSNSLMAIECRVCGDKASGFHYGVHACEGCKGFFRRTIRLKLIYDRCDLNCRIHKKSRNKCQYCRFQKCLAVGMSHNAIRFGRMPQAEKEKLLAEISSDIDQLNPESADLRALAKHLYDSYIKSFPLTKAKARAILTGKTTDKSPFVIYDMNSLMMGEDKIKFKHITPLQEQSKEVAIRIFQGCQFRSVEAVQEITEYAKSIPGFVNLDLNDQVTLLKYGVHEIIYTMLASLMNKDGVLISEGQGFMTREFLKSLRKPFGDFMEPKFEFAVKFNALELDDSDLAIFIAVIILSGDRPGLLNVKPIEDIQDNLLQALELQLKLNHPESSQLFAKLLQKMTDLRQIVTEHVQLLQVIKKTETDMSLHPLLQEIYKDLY
Numeric only. Scale: µM

input: Find Activity (Peroxisome proliferator-activated receptor gamma (Homo sapiens)) for the entry CCCOc1ccc(C[C@H](CC2CCCCC2)C(=O)O)cc1CNC(=O)c1ccc(C23CC4CC(CC(C4)C2)C3)cc1
output: 1

input: Try this compound next: CCCOc1ccc(C[C@@H](CC2CCCCC2)C(=O)O)cc1CNC(=O)c1ccc(C23CC4CC(CC(C4)C2)C3)cc1
output: 1

input: Try this compound next: CCCOc1ccc(C[C@@H](CCc2ccccc2)C(=O)O)cc1CNC(=O)c1ccc(C23CC4CC(CC(C4)C2)C3)cc1
output: 1

input: Try this compound next: CCCOc1ccc(C[C@H](CCc2ccccc2)C(=O)O)cc1CNC(=O)c1ccc(C23CC4CC(CC(C4)C2)C3)cc1
output: 0.05

---

biological target: Peroxisome proliferator-activated receptor delta (Homo sapiens); experiment: Transactivation of human PPARdelta expressed in human HEK293 cells after 16 to 20 hrs by dual luciferase beta-galactosidase reporter gene assay; type: cell-based
Sequence (Q03181 whole entry): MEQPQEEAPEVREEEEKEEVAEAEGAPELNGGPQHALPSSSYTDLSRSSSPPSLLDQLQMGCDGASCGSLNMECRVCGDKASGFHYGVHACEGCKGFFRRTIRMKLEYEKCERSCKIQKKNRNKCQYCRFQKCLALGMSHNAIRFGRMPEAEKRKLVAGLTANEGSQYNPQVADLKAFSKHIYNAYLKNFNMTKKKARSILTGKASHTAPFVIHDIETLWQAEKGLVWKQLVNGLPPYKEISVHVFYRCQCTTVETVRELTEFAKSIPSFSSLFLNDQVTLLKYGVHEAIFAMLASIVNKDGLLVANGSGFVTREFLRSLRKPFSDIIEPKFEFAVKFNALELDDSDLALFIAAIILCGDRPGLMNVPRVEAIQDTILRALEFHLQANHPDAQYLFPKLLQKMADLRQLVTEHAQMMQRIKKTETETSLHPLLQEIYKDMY
measuredQuantity: pEC50
Scale for pEC50: -log10 of concentration given in mol/L; no unit attached.

input: # get_value(readout='pEC50', item= CCCOc1ccc(C[C@H](CC)C(=O)O)cc1CNC(=O)c1ccc(C23CC4CC(CC(C4)C2)C3)cc1 )
output: 6.89

---

biological target: Peroxisome proliferator-activated receptor gamma (Homo sapiens); test: Transactivation of human PPARgamma expressed in human HEK293 cells after 16 to 20 hrs by dual luciferase beta-galactosidase reporter gene assay
measuredQuantity: EC50 (nM)
Numeric only. Scale: nM

input: Find EC50 (Peroxisome proliferator-activated receptor gamma (Homo sapiens)) for the entry CCCOc1ccc(C[C@@H](CCc2ccccc2)C(=O)O)cc1CNC(=O)c1ccc(C23CC4CC(CC(C4)C2)C3)cc1
output: 34

input: Try this compound next: CCCOc1ccc(C[C@H](CCc2ccccc2)C(=O)O)cc1CNC(=O)c1ccc(C23CC4CC(CC(C4)C2)C3)cc1
output: 9.2

input: Try this compound next: CCCOc1ccc(C[C@H](CC2CCCCC2)C(=O)O)cc1CNC(=O)c1ccc(C23CC4CC(CC(C4)C2)C3)cc1
output: 22

input: Try this compound next: CCCOc1ccc(C[C@@H](CC2CCCCC2)C(=O)O)cc1CNC(=O)c1ccc(C23CC4CC(CC(C4)C2)C3)cc1
output: 12
